Each recorded value in this set is attributed to patent US20240201167A1.

- subjectOfTest: T1, human B7-1 N82E on cells (Homo sapiens, UniProt P33681 35-280)
- T1 construct: C-terminally fused to mCherry; also called ASN82 GLU
- T1 chain: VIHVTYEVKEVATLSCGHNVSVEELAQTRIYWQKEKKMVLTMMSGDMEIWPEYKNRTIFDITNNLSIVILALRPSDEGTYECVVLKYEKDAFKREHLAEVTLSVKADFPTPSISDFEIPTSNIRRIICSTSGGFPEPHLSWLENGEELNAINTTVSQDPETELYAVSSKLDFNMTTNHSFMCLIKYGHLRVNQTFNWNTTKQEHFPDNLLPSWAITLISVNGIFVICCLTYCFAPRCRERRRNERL
- methodDescription: cell-cell binding, flow cytometry; percent of the wild-type pair
endpointName: percent binding (%)
Kindly answer with a numeric value in %, unit omitted.

## Task Entry under review: human p75NTR P150K on cells (receptor, Fluorescent-tagged point mutant) KEACPTGLYTHSGECCKACNLGEGVAQPCGANQTVCEPCLDSVTFSDVVSATEPCKPCTECVGLQSMSAPCVEADDAVCRCAYGYYQDETTGRCEACRVCEAGSGLVFSCQDKQNTVCEECKDGTYSDEANHVDPCLPCTVCEDTERQLRECTRWADAECEEIPGRWITRSTPPEGSDSTAPSTQEPEAPPEQDLIASTVAGVVTTVMGSSQPVVTRGTTDNLIPVYCSILAAVVVGLVAYIAFKRWNSCKQNKQGANSRPVNQTPPPEGEKLHSDSGISVDSQSLHDQQPHTQTASGQALKGDGGLYSSLPPAKREEVEKLLNGSAGDTWRHLAGELGYQPEHIDSFTHEACPVRALLASWATQDSATLDALLAALRRIQRADLVESLCSESTATSPV . Reported percent binding?
## Result 13
